Target: T1, human Siglec-7 on primary human monocyte-derived dendritic cells (human, UniProt Q9Y286 19-467)
T1 construct: Endogenous Siglec-7 on dendritic cells differentiated from monocytes of healthy human donors
T1 sequence (Q9Y286 19-467): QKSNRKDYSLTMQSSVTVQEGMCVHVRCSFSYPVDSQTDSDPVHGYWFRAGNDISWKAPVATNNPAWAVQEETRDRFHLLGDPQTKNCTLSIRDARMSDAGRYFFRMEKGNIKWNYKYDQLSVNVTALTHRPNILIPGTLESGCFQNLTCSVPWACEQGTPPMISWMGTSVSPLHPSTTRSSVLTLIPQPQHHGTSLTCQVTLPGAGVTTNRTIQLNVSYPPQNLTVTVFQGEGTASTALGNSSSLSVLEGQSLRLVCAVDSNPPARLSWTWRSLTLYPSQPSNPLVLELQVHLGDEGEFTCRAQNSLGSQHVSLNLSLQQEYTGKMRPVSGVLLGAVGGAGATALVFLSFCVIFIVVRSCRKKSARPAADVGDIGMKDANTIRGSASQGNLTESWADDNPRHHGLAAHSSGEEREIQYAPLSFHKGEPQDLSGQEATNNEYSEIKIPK
Assay: flow cytometry, primary human dendritic cells
property: pEC50
Would you please state pEC50, meaning minus log10 of the concentration in mol/L, as a bare number?

Example binders with recorded pEC50:
[
  {
    "binder": "S7AB-H10 (antibody, V domains shown) VH: QVQLVQSGAEVKKPGASVKISCKASGYAFTNCWMNWVRQAPGQGLEWIGRIFPGNGHTNYAQKFQGRATLTEDTSTSTAYMELSSLRSEDTAVYYCARDYSDYYFDYWGQGTLLTVSS VL: DIQMTQSPSSLSASVGDRVTITCRASQDINTYLNWYQQKPGKAPKLLIYYTSRLHSGVPSRFSGSGSGTDFTLTISSLQPEDFATYYCQQGNTLPWTFGQGTKLEIK",
    "pEC50": 8.20
  },
  {
    "binder": "S7AB-H1 (antibody, V domains shown) VH: QVQLVQSGAEVKKPGASVKVSCKASGYAFTNCWMNWVRQAPGQGLEWMGRIFPGNGHTNYAQKFQGRVTMTRDTSTSTVYMELSSLRSEDTAVYYCARDYSDYYFDYWGQGTLVTVSS VL: DIQMTQSPSSLSASVGDRVTITCRASQDINTYLNWYQQKPGKAPKLLIYYTSRLHSGVPSRFSGSGSGTDFTLTISSLQPEDFATYYCQQGNTLPWTFGQGTKLEIK",
    "pEC50": 8.34
  },
  {
    "binder": "S7AB-H2 (antibody, V domains shown) VH: QVQLVQSGAEVKKPGASVKVSCKASGYAFTNCWMNWVRQAPGQGLEWMGRIFPGNGHTNYAQKFQGRVTMTRDTSTSTVYMELSSLRSEDTAVYYCARDYSDYYFDYWGQGTLVTVSS VL: DIQMTQSPSSLSASVGDRVTITCRASQDINTYLNWYQQKPGKAPKLLIYYTSRLHSGVPSRFSGSGSGTDYTLTISSLQPEDFATYYCQQGNTLPWTFGQGTKLEIK",
    "pEC50": 8.74
  },
  {
    "binder": "S7AB-H6 (antibody, V domains shown) VH: QVQLVQSGAEVKKPGASVKVSCKASGYAFTNCWMNWVRQAPGQGLEWIGRIFPGNGHTNYAQKFQGRVTMTEDTSTSTVYMELSSLRSEDTAVYYCARDYSDYYFDYWGQGTLVTVSS VL: DVQMTQSPSSLSASVGDRVTITCRASQDINTYLNWYQQKPGKAPKLLIYYTSRLHSGVPSRFSGSGSGTDYTLTISSLQPEDFATYYCQQGNTLPWTFGQGTKLEIK",
    "pEC50": 8.80
  },
  {
    "binder": "S7AB-H8 (antibody, V domains shown, also called parental humanized antibody) VH: QVQLVQSGAEVKKPGASVKISCKASGYAFTNCWMNWVRQAPGQGLEWIGRIFPGNGHTNYAQKFQGRATLTEDTSTSTAYMELSSLRSEDTAVYYCARDYSDYYFDYWGQGTLVTVSS VL: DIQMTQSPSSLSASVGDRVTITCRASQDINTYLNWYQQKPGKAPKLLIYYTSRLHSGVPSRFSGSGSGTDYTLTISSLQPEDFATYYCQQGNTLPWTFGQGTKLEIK",
    "pEC50": 8.82
  }
]

## Input Would you kindly share the measured pEC50 for S7AB-H9 (antibody, V domains shown) VH: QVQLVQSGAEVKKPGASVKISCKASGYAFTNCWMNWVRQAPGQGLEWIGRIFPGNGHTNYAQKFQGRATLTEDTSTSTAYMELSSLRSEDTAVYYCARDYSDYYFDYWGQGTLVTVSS VL: DVQMTQSPSSLSASVGDRVTITCRASQDINTYLNWYQQKPGKAPKLLIYYTSRLHSGVPSRFSGSGSGTDYTLTISSLQPEDFATYYCQQGNTLPWTFGQGTKLEIK ?
## Output 8.82

## Input Please do the same for S7AB-H4 (antibody, V domains shown) VH: QVQLVQSGAEVKKPGASVKVSCKASGYAFTNCWMNWVRQAPGQGLEWIGRIFPGNGHTNYAQKFQGRVTMTEDTSTSTVYMELSSLRSEDTAVYYCARDYSDYYFDYWGQGTLVTVSS VL: DIQMTQSPSSLSASVGDRVTITCRASQDINTYLNWYQQKPGKAPKLLIYYTSRLHSGVPSRFSGSGSGTDFTLTISSLQPEDFATYYCQQGNTLPWTFGQGTKLEIK as well.
## Output 8.49

## Input Another binder: S7AB-H7 (antibody, V domains shown) VH: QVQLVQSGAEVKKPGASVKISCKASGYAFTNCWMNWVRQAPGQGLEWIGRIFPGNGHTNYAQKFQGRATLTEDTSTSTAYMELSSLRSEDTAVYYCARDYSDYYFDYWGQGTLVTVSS VL: DIQMTQSPSSLSASVGDRVTITCRASQDINTYLNWYQQKPGKAPKLLIYYTSRLHSGVPSRFSGSGSGTDFTLTISSLQPEDFATYYCQQGNTLPWTFGQGTKLEIK
## Output 8.48

## Input Would you kindly repeat that for S7AB-H5 (antibody, V domains shown) VH: QVQLVQSGAEVKKPGASVKVSCKASGYAFTNCWMNWVRQAPGQGLEWIGRIFPGNGHTNYAQKFQGRVTMTEDTSTSTVYMELSSLRSEDTAVYYCARDYSDYYFDYWGQGTLVTVSS VL: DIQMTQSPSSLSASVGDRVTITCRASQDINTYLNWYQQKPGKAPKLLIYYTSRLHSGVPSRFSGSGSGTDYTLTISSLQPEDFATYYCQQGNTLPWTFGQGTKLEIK ?
## Output 8.96

## Input Now the binder S7AB-H12 (antibody, V domains shown) VH: QVQLVQSGAEVKKPGASVKISCKASGYAFTNCWMNWVRQAPGQGLEWIGRIFPGNGHTNYAQKFQGRATLTEDTSTSTAYMELSSLRSEDTAVYYCARDYSDYYFDYWGQGTLLTVSS VL: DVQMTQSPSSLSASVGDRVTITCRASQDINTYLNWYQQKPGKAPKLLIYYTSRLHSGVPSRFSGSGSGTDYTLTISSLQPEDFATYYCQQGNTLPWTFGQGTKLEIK
## Output 8.25
